// data source = patent US20170052184A1

Reported expected percent binding values for a set of binders
testTarget: T1, HCV Core1-169 (hepatitis C virus (HCV-1), UniProt P26664 1-169)
T1 sequence: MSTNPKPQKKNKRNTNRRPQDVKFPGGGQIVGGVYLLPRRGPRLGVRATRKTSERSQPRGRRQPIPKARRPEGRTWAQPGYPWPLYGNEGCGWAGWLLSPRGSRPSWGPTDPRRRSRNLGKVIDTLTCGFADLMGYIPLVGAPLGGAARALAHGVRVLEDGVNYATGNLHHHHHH
testName: SPR sandwich, capture mAb C11-7
Please give a number only; it is taken to be in %.

binder	resultUnits	measuredValue
HCV 208B-395 (antibody, V domains shown) VH: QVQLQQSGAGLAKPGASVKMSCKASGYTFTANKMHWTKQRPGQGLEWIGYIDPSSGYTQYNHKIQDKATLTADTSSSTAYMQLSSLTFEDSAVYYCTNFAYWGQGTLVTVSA VL: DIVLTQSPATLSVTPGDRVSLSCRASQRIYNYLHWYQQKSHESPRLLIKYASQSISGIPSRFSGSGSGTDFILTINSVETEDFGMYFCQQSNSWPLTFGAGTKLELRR	%	9.4

Now, please, on to the next binder.
So, HCV 208B-1024 (antibody, V domains shown) VH: EVQLVESGGDLVKPGGSLKLSCAASGFTFSNYGMSWVRQTPDKRLEWVATISSGGSYSYYPDSVKGRFTISRDNAKNILYLQMSSLKSEDTAMYYCASLYYGYGDYWGQGTAFTVSS VL: DVLMTQTPLSLPVSLGDQASISCRSSQSIVHSNGNTYLEWYLQKLGQSPKLLIYRVSNRFSGVPDRFSGSGSGTDFTLKISRVEAEDLGVYYCFQGSHVPWTFGGGTKLEIKR ? Its expected percent binding was 14.3
